Molecular target: UniProt:Q01959
Sequence (Q01959 whole entry): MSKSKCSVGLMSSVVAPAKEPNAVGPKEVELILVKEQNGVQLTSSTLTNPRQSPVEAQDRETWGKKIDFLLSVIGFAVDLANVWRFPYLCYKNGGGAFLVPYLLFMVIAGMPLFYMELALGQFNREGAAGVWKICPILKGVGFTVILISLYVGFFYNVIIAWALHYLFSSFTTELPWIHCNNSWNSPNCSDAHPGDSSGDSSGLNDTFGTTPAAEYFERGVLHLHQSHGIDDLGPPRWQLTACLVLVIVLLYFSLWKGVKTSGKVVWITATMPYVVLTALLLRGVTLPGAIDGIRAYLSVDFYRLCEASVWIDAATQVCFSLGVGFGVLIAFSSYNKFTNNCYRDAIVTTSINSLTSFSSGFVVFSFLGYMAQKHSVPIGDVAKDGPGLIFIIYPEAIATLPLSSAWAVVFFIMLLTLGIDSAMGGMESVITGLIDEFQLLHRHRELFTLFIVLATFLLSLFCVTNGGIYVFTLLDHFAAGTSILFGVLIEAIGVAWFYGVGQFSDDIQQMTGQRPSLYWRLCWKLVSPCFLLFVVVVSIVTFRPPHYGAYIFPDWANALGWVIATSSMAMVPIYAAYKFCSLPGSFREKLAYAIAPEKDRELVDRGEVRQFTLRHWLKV
Test: Displacement of [3H]BTCP from human recombinant dopamine transporter expressed in CHO cells
endpoint: IC50

Query: Field request: IC50 | item: `C/C(=N\OC(=O)Nc1ccccc1)c1cccc(-c2cccs2)c1`
Result: > 10 µM

###

Molecular target: Muscarinic acetylcholine receptor M3 (Homo sapiens)
Sequence (P20309 whole entry): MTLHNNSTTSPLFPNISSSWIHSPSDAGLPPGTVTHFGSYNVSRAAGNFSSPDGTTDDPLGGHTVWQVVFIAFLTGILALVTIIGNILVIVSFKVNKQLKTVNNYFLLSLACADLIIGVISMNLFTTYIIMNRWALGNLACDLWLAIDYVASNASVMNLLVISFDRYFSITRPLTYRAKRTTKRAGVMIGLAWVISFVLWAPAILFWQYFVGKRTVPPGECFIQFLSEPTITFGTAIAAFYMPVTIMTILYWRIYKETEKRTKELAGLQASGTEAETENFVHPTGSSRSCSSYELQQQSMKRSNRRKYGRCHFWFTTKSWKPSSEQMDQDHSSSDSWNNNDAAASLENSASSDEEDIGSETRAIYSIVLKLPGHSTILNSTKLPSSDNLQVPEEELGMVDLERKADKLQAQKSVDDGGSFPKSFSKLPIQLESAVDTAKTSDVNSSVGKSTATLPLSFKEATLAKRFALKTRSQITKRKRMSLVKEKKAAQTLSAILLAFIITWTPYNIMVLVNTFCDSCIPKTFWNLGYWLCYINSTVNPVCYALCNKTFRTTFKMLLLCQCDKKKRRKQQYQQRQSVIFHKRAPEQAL
Experiment: Displacement of [3H]4-DAMP from human recombinant muscarinic M3 receptor expressed in CHO cells
endpoint: IC50

Query: GET /values?readout=IC50&system=Muscarinic acetylcholine receptor M3 (Homo sapiens)&item= `C/C(=N\OC(=O)Nc1ccccc1)c1cccc(-c2cccs2)c1`
Result: > 10 µM

###

Target: Muscarinic acetylcholine receptor M1 (Homo sapiens, UniProt P11229)
Sequence (P11229 whole entry): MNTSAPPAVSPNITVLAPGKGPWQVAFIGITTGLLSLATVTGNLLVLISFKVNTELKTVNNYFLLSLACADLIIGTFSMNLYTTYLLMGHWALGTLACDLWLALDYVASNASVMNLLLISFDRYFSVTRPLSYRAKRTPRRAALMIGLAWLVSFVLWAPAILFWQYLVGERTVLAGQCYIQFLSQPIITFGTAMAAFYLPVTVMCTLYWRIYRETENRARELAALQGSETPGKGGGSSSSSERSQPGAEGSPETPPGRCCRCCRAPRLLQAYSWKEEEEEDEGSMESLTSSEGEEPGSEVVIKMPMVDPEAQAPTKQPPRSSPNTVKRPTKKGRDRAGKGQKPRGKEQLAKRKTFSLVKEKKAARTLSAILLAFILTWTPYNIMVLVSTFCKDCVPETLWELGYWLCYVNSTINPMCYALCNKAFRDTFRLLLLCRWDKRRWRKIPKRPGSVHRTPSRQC
Test: Displacement of [3H]pirenzepine from human recombinant muscarinic M1 receptor expressed in CHO cells
pIC50: −log10 of the molar value.
endpoint: pIC50

Query: Field request: pIC50 | item: `C/C(=N\OC(=O)Nc1ccccc1)c1cccc(-c2cccs2)c1`
Result: < 5.00
